Cited source: patent US12110289B2

# Test system: Lung cancer cell line NCI-H358 containing KRas G12C mutation
# assay: Assay for cell proliferation (Cell-titer Glo, 5 days)
# Format: cell-based, human
# test.parameters: Homo sapiens, NCI-H358, 120 h, NCI-H358, 5 days, Cell-titer Glo; read-out: IC50 (nM), Inhibition of NCI-H358 Cell Proliferation
IC50 vs 10 nM: less than gives condition met; not less than gives condition not met.

- C=CC(=O)N1C[C@H](C)N(c2nc(=O)n(-c3c(C(C)C)nc(N)nc3C(C)C)c3nc(-c4c(O)cccc4F)c(F)cc23)C[C@H]1C [Compound 109]: condition not met
- C=CC(=O)N1CCN(c2nc(=O)n(-c3c(C(C)C)nc(OCCN(C)C)nc3C(C)C)c3nc(-c4ccccc4F)c(Cl)cc23)[C@@H](C)C1 [Compound 13]: condition met
- C=CC(=O)N1CCN(c2nc(=O)n(-c3c(C4CC4)nc(C#N)nc3C3CC3)c3nc(-c4c(O)cccc4F)c(F)cc23)[C@@H](C)C1 [Compound 25]: condition not met
- C=CC(=O)N1CCN(c2nc(=O)n(-c3c(C(C)C)nc(N4CCNCC4)nc3C(C)C)c3nc(-c4c(O)cccc4F)c(Cl)cc23)[C@@H](C)C1 [Compound 82]: condition not met
- C=CC(=O)N1C[C@H](C)N(c2nc(=O)n(-c3c(C(C)C)nc(N4CCNCC4)nc3C(C)C)c3nc(-c4c(N)cccc4F)c(F)cc23)C[C@H]1C [Compound 96]: condition not met
- C=CC(=O)N1CCN(c2nc(=O)n(-c3c(C4CC4)nc(OC(F)F)nc3C3CC3)c3nc(-c4c(N)cccc4F)c(F)cc23)[C@@H](C)C1 [Compound 119]: condition met
